# Tested on: T lymphoblast CEM-CCRF (CEM) cells
# Method Notes: MTT cytotoxicity, CEM cells
# Format: cell-based, human
Value Kind: CC50

Observe how each entry below is paired with its result.
NCc1cccc(Oc2ccccc2)c1 [GT-12]
17 µM
COc1cc(OC)c2cc(-c3nc4ccccc4[nH]3)c(-c3ccc(C)cc3)nc2c1 [GT-35]
> 100 µM
CNc1cc(C#N)nc(-c2ccccc2)n1 [GT-28]
63.8 µM
NCc1cccc(Oc2ccccc2)c1 [GT-21]
18.2 µM
O=C(Cc1ccc(O)cc1)NCc1nc(-c2cccc(F)c2)c(-c2ccccn2)[nH]1 [GT-42]
1.4 µM
Cc1c(CCN)ccc2c1[nH]c1ccccc12 [GT-6]
18.7 µM

# per-item lookup of CC50; items listed below
1. CC(=O)N1CCC(NCc2nc(-c3ccc(C)cc3)c(-c3ccccn3)[nH]2)CC1 [GT-44]
2. CC(NC(=O)c1cccnc1)c1ccccc1 (stereo not shown) [GT-18]
3. Clc1ccccc1C=Cc1ccnc2ccccc12 [GT-3]
4. Cc1ccc(C(N)c2ccncc2)cc1 (stereo not shown) [GT-20]

1. 63 µM
2. > 100 µM
3. 15.4 µM
4. > 100 µM

Batch: CC50 for all items listed.
1. c1ccc(Cn2cc(-c3cccnc3)c(-c3nc(-c4ccccc4)c(-c4ccccc4)[nH]3)n2)cc1 [GT-34]
2. O=C(NCCN1CCOCC1)c1ccc2nc(-c3ccccc3)c(-c3ccccc3)nc2c1 [GT-36]
3. O=C(OCc1ccccc1)c1cccnc1 [GT-16]

1. 11 µM
2. 18 µM
3. > 100 µM

Each of the following entries comes with a recorded value; kindly state CC50 for each.
1. CCN1CCN(C(=O)c2ccc(-c3nc4ccccc4nc3-c3ccccc3)cc2)CC1 [GT-30]
2. O=C(NCCc1ccccc1)c1cccnc1 [GT-13]
3. CC(O)(c1ccccc1)C(c1ccccc1)C1CCCCN1 (stereo not shown) [GT-4]
4. Cc1cc(-c2ccccc2)nc(C#N)c1C#N [GT-27]
5. COc1ccc(F)c(Cn2cnc(-c3ccccc3)c2-c2c[nH]cn2)c1F [GT-38]
6. CCN(CC)CCCNc1cc(OC)c(Nc2ccccc2)c2cccnc12 [GT-49]
7. O=C(CCc1ccccc1)Nc1cccnc1 [GT-15]

32 µM
> 100 µM
> 100 µM
4 µM
62 µM
9.4 µM
> 100 µM

State recorded CC50 for all listed molecules.
1. Cc1ccc(-c2nc(CNC(=O)C3CCOC3)[nH]c2-c2ccccn2)cc1 (stereo not shown) [GT-43]
2. Fc1ccccc1CNCc1ccccn1 [GT-14]

1. 30 µM
2. > 100 µM

====

# Target Desc: Cp149 capsid assembly (Hepatitis B virus genotype D subtype adw)
# Construct: The N-terminal domain of Cp (Cp149) is sufficient for forming regular capsids; made in house; host or cells: E. coli BL21(DE3)
# Sequence (P03147 1-149): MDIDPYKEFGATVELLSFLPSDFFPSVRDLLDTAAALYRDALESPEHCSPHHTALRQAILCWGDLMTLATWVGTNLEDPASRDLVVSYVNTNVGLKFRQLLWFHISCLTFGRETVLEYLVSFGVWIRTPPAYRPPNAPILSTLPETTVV
# Method Notes: Transmission electron microscopy of assembled Cp149 products
# Assay type: biochemical
# Setup Conditions: average of two trials
Can you tell me % abnormal capsids, Average for the items I'm about to list?
Give bare numbers, in %.

CCOC(=O)c1cc(-c2cc(C(=O)OCC)c3ccccc3n2)nc2ccccc12
29

Hello, I would appreciate it if you could give % abnormal capsids, Average for each entry below.
1. NCCCC(=O)NCc1nc(-c2cccc(F)c2)c(-c2ccccn2)[nH]1
2. Cc1ccc2[nH]c(CCNc3nccc(-c4ccccn4)n3)nc2c1C
3. Cc1nc(-c2c(-c3ccccc3)ncn2Cc2cccc3[nH]ccc23)c[nH]1
4. O=C(NCc1ccc(-c2cccnc2)nc1)c1ccc2nccnc2c1

1: 38; 2: 26; 3: 10; 4: 74

Where these numbers come from: paper PMC11019538
